Entry source: the supplement of paper PMC4862054

System: MDA-MB-231
assay: drug sensitivity score (DSS), CellTiter-Glo (DSS (AUC-based score)); higher = stronger drug effect (viability inhibition or cytotoxicity); extreme values may be limits of the assay
condition-notes: incubation time: 72 h
readout: drug sensitivity score

- compound: "CCC1=C[C@@H]2CN(C1)Cc1c([nH]c3ccccc13)[C@@](C(=O)OC)(c1cc3c(cc1OC)N(C)[C@H]1[C@@](O)(C(=O)OC)[C@H](OC(C)=O)[C@]4(CC)C=CCN5CC[C@]31[C@@H]54)C2"
  endpoint-result: 13.7
- compound: "CO[C@H]1/C=C\\C=C(/C)C(=O)NC2=CC(=O)C(NCCN(C)C)=C(C[C@@H](C)C[C@H](OC)[C@H](O)[C@@H](C)/C=C(\\C)[C@@H]1OC(N)=O)C2=O"
  endpoint-result: 13.3
- compound: "COc1cc2ncnc(Nc3ccc(F)c(Cl)c3)c2cc1NC(=O)/C=C/CN1CCCCC1"
  endpoint-result: 0.139
- compound: "C[C@]12CC[C@@H]3c4ccc(O)cc4C[C@@H](CCCCCCCCC[S+]([O-])CCCC(F)(F)C(F)(F)F)[C@H]3[C@@H]1CC[C@@H]2O (stereo partly specified)"
  endpoint-result: 0
- compound: "C[C@@H](Oc1cc(-c2cnn(C3CCNCC3)c2)cnc1N)c1c(Cl)ccc(F)c1Cl"
  endpoint-result: 0
- compound: "CCCCCCCCCCCCCCCCCCOP(=O)([O-])OC1CC[N+](C)(C)CC1"
  endpoint-result: 0
